assay: ATG_VDRE_CIS: Attagene CIS-FACTORIAL HepG2 Assay for human Vitamin D Receptor Element (VDRE) (AID 2282968); conditions: HepG2 VDRE cis-reporter transcription, actives raise or lower the signal
Calls of active or inactive are those of the source. How the source made its calls: active means hit-call score of the fitted dose curve at least 0.9, where 1 is the maximum; inactive means score below 0.9.
Metric Name: AC50

INSERT INTO measurements (molecule, metric_name, reported_result) VALUES
  ('Cc1ccccc1CCl', 'AC50', 'inactive'),
  ('C=CC(=O)OCCO', 'AC50', '116 µM (active)'),
  ('CC(C)(C)C(O)C(Oc1ccc(-c2ccccc2)cc1)n1cncn1 (configuration not stated)', 'AC50', '9 µM (active)'),
  ('CN(C)CCC#N', 'AC50', 'inactive'),
  ('CC1CCC(=O)O1 (configuration not stated)', 'AC50', 'inactive'),
  ('N#CC(c1ccccc1)c1ccccc1', 'AC50', '30.3 µM (active)'),
  ('BrCBr', 'AC50', 'inactive'),
  ('COc1ccc(CO)cc1', 'AC50', 'inactive'),
  ('O=c1[nH]c(Cl)c(Cl)cc1Cl', 'AC50', 'inactive'),
  ('N#CCCCl', 'AC50', 'inactive'),
  ('ClCCCCCCCl', 'AC50', 'inactive'),
  ('Oc1cc(Cl)ccc1Cl', 'AC50', 'inactive'),
  ('CC[N+](=O)[O-]', 'AC50', 'inactive'),
  ('C=CC(=O)OC', 'AC50', 'inactive'),
  ('O=CNC(N1CCN(C(NC=O)C(Cl)(Cl)Cl)CC1)C(Cl)(Cl)Cl (configuration not stated)', 'AC50', '15.3 µM (active)'),
  ('COC(=O)COc1ccc(Cl)cc1Cl', 'AC50', 'inactive'),
  ('CC=Cc1ccc2c(c1)OCO2', 'AC50', 'inactive'),
  ('CC(=O)/C=C/c1ccccc1', 'AC50', '31.6 µM (active)'),
  ('Cc1ccc(N(SC(F)(Cl)Cl)S(=O)(=O)N(C)C)cc1', 'AC50', '14.4 µM (active)'),
  ('CCC[N+](=O)[O-]', 'AC50', 'inactive'),
  ('CN1C[C@H](C(=O)N[C@]2(C)O[C@@]3(O)[C@@H]4CCCN4C(=O)[C@H](Cc4ccccc4)N3C2=O)C=C2c3cccc4[nH]cc(c34)C[C@H]21', 'AC50', '0.966 µM (active)'),
  ('CCCC=NO', 'AC50', 'inactive');

###

molecular target: human Phosphatase and Tensin Homolog (PTEN), PTEN (gene 5728); assay: NVS_ENZ_hPTEN: NovaScreen (NVS) Enzymatic Assay for human Phosphatase and Tensin Homolog (PTEN) (AID 2283203)
Inconclusive results are not listed. Activity calls are given as the source filed them. The calls were made as follows: active = hit-call score of the fitted dose curve at least 0.9, where 1 is the maximum; inconclusive = response in the unintended direction; inactive = score below 0.9.
Possible outcomes: 1 (yes) = active, 0 (no) = inactive

INSERT INTO measurements (molecule, classification) VALUES
  ('CC(C)(c1ccc(O)cc1)c1ccc(O)cc1', '0 (no)'),
  ('O=C=Nc1cccc2c(N=C=O)cccc12', '0 (no)'),
  ('Nc1ccc(F)c([N+](=O)[O-])c1', '0 (no)'),
  ('COc1ccccc1C=O', '0 (no)'),
  ('OCCC(O)CO (stereo not given)', '1 (yes)');

###

target: human Retinoid X Receptor beta (RXRb), RXRB (gene 6257); test: ATG_RXRb_TRANS: Attagene TRANS-FACTORIAL HepG2 Assay for human Retinoid X Receptor beta (RXRb) (AID 2283013)
Inconclusive results are not listed. The source made the active and inactive calls. How the source made its calls: active means hit-call score of the fitted dose curve at least 0.9, where 1 is the maximum; inconclusive means response in the unintended direction; inactive means score below 0.9.
Possible outcomes: 1 for active, 0 for inactive

INSERT INTO measurements (molecule, classification) VALUES
  ('COC(C)(C)CCC[C@H](C)C/C=C/C(C)=C/C(=O)OC(C)C', 0),
  ('CC(C)CCCCCCCOP(=O)(Oc1ccccc1)Oc1ccccc1', 0),
  ('Cc1ccccc1CCl', 0),
  ('CC(=O)c1cc2c(cc1C)C(C)(C)C(C)CC2(C)C (stereo not drawn)', 1),
  ('CCOP(=O)(OCC)OCC', 0),
  ('O=C(NC(=O)c1c(F)cccc1F)Nc1ccc(Oc2ccc(C(F)(F)F)cc2Cl)cc1F', 0),
  ('O=c1c2ccccc2c(=O)c2c1cc(Cl)c1[nH]c3c([nH]c12)c(Cl)cc1c(=O)c2ccccc2c(=O)c13', 1),
  ('CC(C)(C)C(O)C(Oc1ccc(-c2ccccc2)cc1)n1cncn1 (stereo not drawn)', 0);
